protocolNotes: Pharmacokinetics in Beagle dogs
Format: in vivo
reportedConditions: male, Beagle, plasma; dog; PO 10 mg/kg; read-out: MRT0-∞
parameterMeasured: MRT inf (min)
Give the number; min is assumed, so skip it.

// sample "Cc1ccc2cccc(NC(=O)c3cccc(OC(C)C)c3)c2n1" , its MRT inf was 37.2

* * *

protocolNotes: Pharmacokinetics in Beagle dogs
Type: in vivo
reportedConditions: male, Beagle, plasma; dog; IV 1 mg/kg
parameterMeasured: Tmax (min)
Give the number; min is assumed, so skip it.

// sample "Cc1ccc2cccc(NC(=O)c3cccc(OC(C)C)c3)c2n1" , its Tmax was 1.2

* * *

protocolNotes: Pharmacokinetics in CD-1 mice
Assay type: in vivo, mouse
reportedConditions: mouse, plasma; CD-1 mice; 2 mg/kg i.v. or 10 mg/kg P.O.
Each entry gets false (0) if its Cmax stays under 80 nM, and true (1) if its Cmax is 80 nM or above.

Please review the entries below; each comes with its answer.
Cc1ccc2cccc(NC(=O)c3ccc(OC(C)C)cc3)c2n1; true (1)
Cc1ccc2cccc(NC(=O)c3ccc(N(C)C)cc3)c2n1; true (1)

Reported Cmax reaches at least 80 nM for "CCNc1ccc(C(=O)Nc2cccc3ccc(C)nc23)cc1" ?
true (1)

Reported Cmax reaches at least 80 nM for "Cc1ccc2cccc(NC(=O)c3cccc(OC(C)C)c3)c2n1" ?
true (1)

Reported Cmax reaches at least 80 nM for "Cc1ccc2cccc(NC(=O)c3ccc(C)s3)c2n1" ?
false (0)

Reported Cmax reaches at least 80 nM for "Cc1ccc2cccc(NC(=O)c3ccc(NC(C)C)cc3)c2n1" ?
true (1)

Reported Cmax reaches at least 80 nM for "Cc1ccc2cccc(NC(=O)c3cc(Br)cs3)c2n1" ?
false (0)
